Test: Survival of HIV-1 infected and uninfected Hela cells
Format: cell-based
Settings: human, uninfected HeLa cells, read-out: intact viable uninfected Hela cells
No end group written: not given here.
recorded-metric: viability at 12.5 µM

GET /value?item= WTAVQMAVFIHNFKRK [INS] &field=viability at 12.5 µM returns ~100%

Data origin: patent US9738878B2
